Reported folding stability dG unfold by item:
assay: folding stability dG unfold (combined trypsin and chymotrypsin); higher = more stable

Sample answers from the record:
(Q) # get_value(readout='folding stability dG unfold', item= SMVLARIKVRVRDPVTGEELDVEIDLLAPVEVAEEAAEEFRKLFPGLEVEVDLVEVVPLPPVTPEQLAKESA [r9_421_TrMRF] )
(A) 2.48 kcal/mol

(Q) Record request: folding stability dG unfold value, item SKMKIKIEITEVYPEGKTIVVKAEIEIDGKTIEMEMTIKLPNGEEYRIRMRFVRRKDGRLEMEIEVEKLPSA [r9_255_TrROS_Hall]
(A) > 6 kcal/mol

(Q) Name the reported folding stability dG unfold value associated with the sequence SAGGSAGGSGMTLEEIAERLKEEYNAPEVKVTRDPSKPVYTVTVTLADGSTKTYTIYVPEELGSAGGSAGGS [r12_114_JUSTAS]
(A) 3.44 kcal/mol

(Q) Could you tell me which folding stability dG unfold is on file for SAGGSVLVTLTNPADGTPVTLPTPAEEAEAILASGDTAALEARHPGRPVAAVTVDPVSPRPPVPPGLASAGG [r13_629_JUSTAS] ?
(A) -0.651 kcal/mol

New cases:
(Q) Can you look up the measured folding stability dG unfold of SGMTPVSVSRKFTSTFPNGTPVSDPGGLVVLVPEPPPPPYVHLSPEEVEAARAAAAAAGSPLTEADIRASSA [r9_487_JUSTAS] for me?
(A) -0.642 kcal/mol

(Q) Dear colleague, I am looking for the recorded folding stability dG unfold of the following sequence: SAGGSAGGSAGGGMSSVSLVKTSTITVGNGTVKLETLSYPDSSFVRTTLPNGKDVVEPLPSAGGSAGGSAGG [r7_655_JUSTAS]
(A) -0.089 kcal/mol

(Q) Which folding stability dG unfold value is on record for SAGMVKINVAKLPDGKYVITVVDANDGTPLLELPVDSPEGAEKAAKAIAEELKKKYPDATVEVDYTDFESAG [r5_383_TrMRF] ?
(A) 4.13 kcal/mol
